test.name: Plasma pharmacokinetics after single oral dose of Δ8-THCV in MCT oil (LC-MS/MS, non-compartmental analysis)
Assay type: in vivo, human
stated.conditions: human, plasma, po, 100 mg, 100 mg single oral Δ8-THCV in MCT oil; Mean (±SD)

compound	Cmax (ng/mL)
CCCc1cc(O)c2c(c1)OC(C)(C)[C@@H]1CCC(C(=O)O)=C[C@@H]21 [Δ9-THCV-COOH, 11-nor-9-carboxy-Δ9-THCV]	22.5
CCCc1cc(O)c2c(c1)OC(C)(C)[C@@H]1CC=C(C)C[C@@H]21 [Δ8-THCV, Δ8-tetrahydrocannabivarin]	21.5
CCCc1cc(O)c2c(c1)OC(C)(C)[C@@H]1CC=C(CO)C[C@@H]21 (racemic) [11-OH-Δ8-THCV, (±)-11-hydroxy-Δ8-THCV]	4.3
CCCCCc1cc(O)c2c(c1)OC(C)(C)[C@@H]1CC=C(C(=O)O)CC21 (single isomer, unassigned; (+)) [Δ8-THC-COOH, (+)-11-nor-Δ8-THC-9-carboxylic acid]	1.4
CCCc1cc(O)c2c(c1)OC(C)(C)[C@@H]1CC=C(C(=O)O)C[C@@H]21 [Δ8-THCV-COOH, 11-nor-9-carboxy-Δ8-THCV]	756
CCCc1cc(O)c2c(c1)OC(C)(C)[C@@H]1CCC(C)=C[C@@H]21 [Δ9-THCV, Δ9-tetrahydrocannabivarin]	1.1
